These data points were gathered from patent US4558122A.

Assay: physchem
Format: physicochemical
Details: water, pH 4
Property measured: degraded at 4 h (%)

{"Compound": "C[S+](CC[C@H](N)C(=O)[O-])C[C@H]1O[C@@H](n2cnc3c(N)ncnc32)[C@H](O)[C@@H]1O (stereo partly shown)", "Property measured": "degraded at 4 h", "Readout value": 100}
{"Compound": "COC(=O)[C@@H](N)CC[S+](C)C[C@H]1O[C@@H](n2cnc3c(N)ncnc32)[C@H](O)[C@@H]1O (stereo partly shown)", "Property measured": "degraded at 4 h", "Readout value": 100}
{"Compound": "CCOC(=O)[C@@H](N)CC[S+](C)C[C@H]1O[C@@H](n2cnc3c(N)ncnc32)[C@H](O)[C@@H]1O (stereo partly shown)", "Property measured": "degraded at 4 h", "Readout value": 80}
{"Compound": "CCCCOC(=O)[C@@H](N)CC[S+](C)C[C@H]1O[C@@H](n2cnc3c(N)ncnc32)[C@H](O)[C@@H]1O (stereo partly shown)", "Property measured": "degraded at 4 h", "Readout value": 75}

---

Assay: physchem
Format: physicochemical
Details: water, pH 3
Property measured: degraded at 0.5 h (%)

{"Compound": "CCOC(=O)[C@@H](N)CC[S+](C)C[C@H]1O[C@@H](n2cnc3c(N)ncnc32)[C@H](O)[C@@H]1O (stereo partly shown) [C2 H5, SAM ethyl ester]", "degraded at 0.5 h / %": 6}

a: C[S+](CC[C@H](N)C(=O)[O-])C[C@H]1O[C@@H](n2cnc3c(N)ncnc32)[C@H](O)[C@@H]1O (stereo partly shown) [H, S-adenosylmethionine]
b: CCCCOC(=O)[C@@H](N)CC[S+](C)C[C@H]1O[C@@H](n2cnc3c(N)ncnc32)[C@H](O)[C@@H]1O (stereo partly shown) [C4 H9, SAM n-butyl ester]
c: COC(=O)[C@@H](N)CC[S+](C)C[C@H]1O[C@@H](n2cnc3c(N)ncnc32)[C@H](O)[C@@H]1O (stereo partly shown) [CH3, SAM methyl ester]
INPUT: Task field, ranking: reported degraded at 0.5 h, descending order. Output spec: labels arranged per the requested ranking.
OUTPUT: a, c, b
(a: 100%, c: 13%, b: 6%)

---

Experiment: stability in the dry state at 45° C.
Assay type: physicochemical
Settings: 45° C., 240 days, read-out: Degradation at 45° C. after 240 days
Property measured: degraded at 5760 h (%)

{"Compound": "CC(=O)N[C@@H](CC[S+](C)C[C@H]1O[C@@H](n2cnc3c(N)ncnc32)[C@H](O)[C@@H]1O)C(=O)[O-] (some centres unmarked) [SAM monoacetyl. 2 H2 SO4, SAM monoacetyl]", "degraded at 5760 h / %": 4.6}
{"Compound": "CC(=O)N[C@@H](CC[S+](C)C[C@H]1O[C@@H](n2cnc3c(N)ncnc32)[C@H](OC(C)=O)[C@@H]1OC(C)=O)C(=O)[O-] (some centres unmarked) [SAM triacetyl. 2 H2 SO4, SAM triacetyl]", "degraded at 5760 h / %": 5.9}

---

Assay: physchem
Assay type: physicochemical
Conditions: water, pH 3
Property measured: degraded at 4 h (%)

Some solved cases for reference:
{"Compound": "C[S+](CC[C@H](N)C(=O)[O-])C[C@H]1O[C@@H](n2cnc3c(N)ncnc32)[C@H](O)[C@@H]1O (stereo partly shown)", "Property measured": "degraded at 4 h", "Readout value": 100}
{"Compound": "CCOC(=O)[C@@H](N)CC[S+](C)C[C@H]1O[C@@H](n2cnc3c(N)ncnc32)[C@H](O)[C@@H]1O (stereo partly shown)", "Property measured": "degraded at 4 h", "Readout value": 55}

1: COC(=O)[C@@H](N)CC[S+](C)C[C@H]1O[C@@H](n2cnc3c(N)ncnc32)[C@H](O)[C@@H]1O (stereo partly shown)
2: CCCCOC(=O)[C@@H](N)CC[S+](C)C[C@H]1O[C@@H](n2cnc3c(N)ncnc32)[C@H](O)[C@@H]1O (stereo partly shown)
INPUT: Could you check which of 1 and 2 has a smaller value for degraded at 4 h? Respond with the label that goes with your answer.
OUTPUT: 2
(2: 52%, 1: 100%)

---

Experiment: physchem
Format: physicochemical
Details: water, pH 2
Property measured: degraded at 1 h (%)

a: CCOC(=O)[C@@H](N)CC[S+](C)C[C@H]1O[C@@H](n2cnc3c(N)ncnc32)[C@H](O)[C@@H]1O (stereo partly shown) [C2 H5, SAM ethyl ester]
b: C[S+](CC[C@H](N)C(=O)[O-])C[C@H]1O[C@@H](n2cnc3c(N)ncnc32)[C@H](O)[C@@H]1O (stereo partly shown) [H, S-adenosylmethionine]
c: COC(=O)[C@@H](N)CC[S+](C)C[C@H]1O[C@@H](n2cnc3c(N)ncnc32)[C@H](O)[C@@H]1O (stereo partly shown) [CH3, SAM methyl ester]
INPUT: List the 3 compounds shown above, ordered by increasing degraded at 1 h. Output spec: labels arranged per the requested ranking.
OUTPUT: a, c, b
(a: 8%, c: 21%, b: 100%)

---

Test: stability in the dry state at 45° C.
Format: physicochemical
Property measured: degraded at 2880 h (%)
Only the number, expressed in %, is required.

INPUT: Quick one: degraded at 2880 h of C[S+](CC[C@H](N)C(=O)[O-])C[C@H]1O[C@@H](n2cnc3c(N)ncnc32)[C@H](O)[C@@H]1O (stereo partly shown) [SAM. H2 SO4, S-adenosylmethionine] ?
OUTPUT: 100

---

Assay: physchem
Type: physicochemical
Settings: water, pH 3
Property measured: degraded at 1 h (%)

A: CCCCOC(=O)[C@@H](N)CC[S+](C)C[C@H]1O[C@@H](n2cnc3c(N)ncnc32)[C@H](O)[C@@H]1O (stereo partly shown) [C4 H9, SAM n-butyl ester]
B: COC(=O)[C@@H](N)CC[S+](C)C[C@H]1O[C@@H](n2cnc3c(N)ncnc32)[C@H](O)[C@@H]1O (stereo partly shown) [CH3, SAM methyl ester]
INPUT: Could you check which of A and B has a smaller value for degraded at 1 h? Respond with the label that goes with your answer.
OUTPUT: A
(A: 12%, B: 25%)

1: CCOC(=O)[C@@H](N)CC[S+](C)C[C@H]1O[C@@H](n2cnc3c(N)ncnc32)[C@H](O)[C@@H]1O (stereo partly shown) [C2 H5, SAM ethyl ester]
2: C[S+](CC[C@H](N)C(=O)[O-])C[C@H]1O[C@@H](n2cnc3c(N)ncnc32)[C@H](O)[C@@H]1O (stereo partly shown) [H, S-adenosylmethionine]
INPUT: Between 1 and 2 , whose recorded degraded at 1 h is greater? Respond with the label that goes with your answer.
OUTPUT: 2

---

Experiment: physchem
Assay type: physicochemical
Conditions: water, pH 2
Property measured: degraded at 4 h (%)

A: COC(=O)[C@@H](N)CC[S+](C)C[C@H]1O[C@@H](n2cnc3c(N)ncnc32)[C@H](O)[C@@H]1O (stereo partly shown)
B: CCCCOC(=O)[C@@H](N)CC[S+](C)C[C@H]1O[C@@H](n2cnc3c(N)ncnc32)[C@H](O)[C@@H]1O (stereo partly shown)
INPUT: Could you check which of A and B has a smaller value for degraded at 4 h? Respond with the label that goes with your answer.
OUTPUT: B
(B: 30%, A: 75%)

P: C[S+](CC[C@H](N)C(=O)[O-])C[C@H]1O[C@@H](n2cnc3c(N)ncnc32)[C@H](O)[C@@H]1O (stereo partly shown)
Q: CCOC(=O)[C@@H](N)CC[S+](C)C[C@H]1O[C@@H](n2cnc3c(N)ncnc32)[C@H](O)[C@@H]1O (stereo partly shown)
INPUT: Between P and Q , whose recorded degraded at 4 h is greater? Respond with the label that goes with your answer.
OUTPUT: P

---

Assay: physchem
Type: physicochemical
Settings: water, pH 4
Property measured: degraded at 1 h (%)

{"Compound": "CCOC(=O)[C@@H](N)CC[S+](C)C[C@H]1O[C@@H](n2cnc3c(N)ncnc32)[C@H](O)[C@@H]1O (stereo partly shown)", "Property measured": "degraded at 1 h", "Readout value": 19}

P: C[S+](CC[C@H](N)C(=O)[O-])C[C@H]1O[C@@H](n2cnc3c(N)ncnc32)[C@H](O)[C@@H]1O (stereo partly shown)
Q: CCCCOC(=O)[C@@H](N)CC[S+](C)C[C@H]1O[C@@H](n2cnc3c(N)ncnc32)[C@H](O)[C@@H]1O (stereo partly shown)
R: COC(=O)[C@@H](N)CC[S+](C)C[C@H]1O[C@@H](n2cnc3c(N)ncnc32)[C@H](O)[C@@H]1O (stereo partly shown)
INPUT: Task field, ranking: reported degraded at 1 h, descending order. Output spec: labels arranged per the requested ranking.
OUTPUT: P, R, Q
(P: 100%, R: 40%, Q: 17%)

---

Assay: physchem
Assay type: physicochemical
Conditions: water, pH 4
Property measured: degraded at 0.5 h (%)

{"Compound": "CCCCOC(=O)[C@@H](N)CC[S+](C)C[C@H]1O[C@@H](n2cnc3c(N)ncnc32)[C@H](O)[C@@H]1O (stereo partly shown) [C4 H9, SAM n-butyl ester]", "degraded at 0.5 h (%)": 9}

I: CCOC(=O)[C@@H](N)CC[S+](C)C[C@H]1O[C@@H](n2cnc3c(N)ncnc32)[C@H](O)[C@@H]1O (stereo partly shown) [C2 H5, SAM ethyl ester]
II: C[S+](CC[C@H](N)C(=O)[O-])C[C@H]1O[C@@H](n2cnc3c(N)ncnc32)[C@H](O)[C@@H]1O (stereo partly shown) [H, S-adenosylmethionine]
III: COC(=O)[C@@H](N)CC[S+](C)C[C@H]1O[C@@H](n2cnc3c(N)ncnc32)[C@H](O)[C@@H]1O (stereo partly shown) [CH3, SAM methyl ester]
INPUT: Task field, ranking: reported degraded at 0.5 h, descending order. Output spec: labels arranged per the requested ranking.
OUTPUT: II, III, I
(II: 100%, III: 18%, I: 9%)
